System: MCF7 breast
PROTOCOL_DETAILS: NCI-60 one-dose screen, 48 h (100 = growth as untreated, 0 = no growth, -100 = all killed)
CONDITION_NOTES: 10 µM unless noted
About 83,000 compounds went through this panel and 20% of them were active in at least one assay; those are over-represented in the sample as a whole. The source made the active and inactive calls. The calls were made as follows: active = growth percent below 10; inactive = the rest.
MEASURED_ENDPOINT: growth

{"COMPOUND": "c1cnc2nc3c(cc2c1)oc1ccccc13", "ENDPOINT_RESULT": "86.6% (inactive)"}
{"COMPOUND": "Cc1cn(-c2cc(C(=O)Nc3cccc(C#Cc4cccc5[nH]nc(N)c45)c3)cc(C(F)(F)F)c2)cn1", "ENDPOINT_RESULT": "64.8% (inactive)"}
{"COMPOUND": "CCN(CC)CCOC(COc1cc(C)cc(C)c1)COc1cc(C)cc(C)c1", "ENDPOINT_RESULT": "17.5% (inactive)"}
{"COMPOUND": "CC1(c2ccccc2)NC(=O)N(CC(=O)Nc2cccc(I)c2)C1=O (stereo unspecified)", "ENDPOINT_RESULT": "85.5% (inactive)"}
{"COMPOUND": "COc1cc2ncnc(Nc3ccc(C(=O)/C=C/c4ccc(C(F)(F)F)cc4F)cc3)c2cc1OC", "ENDPOINT_RESULT": "64.6% (inactive)"}
{"COMPOUND": "O=C(Nc1ccc2ncnc(Nc3ccc(Oc4cccc(F)c4)c(Cl)c3)c2c1)c1ccc(CN2CCOCC2)cc1", "ENDPOINT_RESULT": "10.5% (inactive)"}
{"COMPOUND": "c1ccc(CCSc2ncnc3nc[nH]c23)cc1", "ENDPOINT_RESULT": "88.3% (inactive)"}
{"COMPOUND": "COc1ccc2c(/C=C3/C(=O)NC(=S)NC3C)cc(=O)oc2c1 (stereo unspecified)", "ENDPOINT_RESULT": "90.1% (inactive)"}
{"COMPOUND": "COc1ccc(-c2nc(SC(C)C)nc(NNC(N)=O)c2C#N)cc1", "ENDPOINT_RESULT": "84.3% (inactive)"}
{"COMPOUND": "COc1cc(NCCCN(CC(C)C)CC(C)C)c2ncccc2c1", "ENDPOINT_RESULT": "-43.4% (active)"}
{"COMPOUND": "CN(C)C(=O)OCc1nc2c(N3CCOCC3)nc(-c3ccccc3)nc2n1C", "ENDPOINT_RESULT": "-60% (active)"}
{"COMPOUND": "N#CC1=C(N)Oc2c(ccc3ccccc23)C1c1ccc([N+](=O)[O-])cc1 (stereo unspecified)", "ENDPOINT_RESULT": "51.8% (inactive)"}
{"COMPOUND": "CCc1nc(C)cn1C(=O)OCc1nc2nc(Cl)nc(N3CCOCC3)c2[nH]1", "ENDPOINT_RESULT": "-22.4% (active)"}
{"COMPOUND": "CO[C@@H]1[C@H](N(C)C(=O)c2ccccc2)C[C@@H]2O[C@]1(C)n1c3ccccc3c3c4c(c5c6ccccc6n2c5c31)C(=O)NC4=O", "ENDPOINT_RESULT": "42% (inactive)"}
{"COMPOUND": "COc1ccc(Nc2nc(N)nc3c2CCc2occc2-3)cc1", "ENDPOINT_RESULT": "78.7% (inactive)"}
{"COMPOUND": "NC(=O)c1cccc(-c2cc(C(N)=O)ccc2Cl)c1", "ENDPOINT_RESULT": "23.5% (inactive)"}
{"COMPOUND": "COc1ccc(-c2nc(N/N=C/c3cccc(Br)c3)nc(N3CCOCC3)c2C#N)cc1", "ENDPOINT_RESULT": "59.3% (inactive)"}
{"COMPOUND": "O=C(CN1CCOCC1)Nc1ccc2ncnc(Nc3ccc(OCc4cccc(F)c4)c(Cl)c3)c2c1", "ENDPOINT_RESULT": "54.7% (inactive)"}
{"COMPOUND": "O=S(=O)(c1ccc(N/N=C\\c2ccccc2)cc1)c1ccc(N/N=C/c2ccccc2)cc1", "ENDPOINT_RESULT": "62.9% (inactive)"}
{"COMPOUND": "CCC(C)C(N)C(=O)NNc1n[nH]c(=S)n1N (stereo unspecified)", "ENDPOINT_RESULT": "96.9% (inactive)"}
{"COMPOUND": "O=C(Nc1cccc(Cl)c1)c1cc(Cl)ccc1O", "ENDPOINT_RESULT": "4.21% (active)"}
